The measured values listed here are drawn from the supplement of paper PMC4466140.

target: CaBzz1-D2; assay: SPOT peptide array binding signal intensity (averaged, normalized) (arbitrary units (background-subtracted, floor 0; scale differs between SH3 domains)); higher = stronger binding of the SH3 domain to the peptide
test-readout: SPOT peptide array binding signal intensity
Field format: numeric only.

Consider the following illustrative entries.
binder	endpoint-result
SSTPTTPERPKRKSG	36.2
LKQRFFLMFPKSIIW	48.5
NPNRRAPRRPLSTQH	104
NMLSRPRLAKLPSIR	69.8
ILARAILTIPRVLDK	247
KKEKKPPKIPKKVYT	2760
RRRIAYPFYPFKKLG	9.5
PVLPPPRSPNRPTLS	56
QHQQRQPKRPKRYSL	94
GKFIPSRPAPKPPSS	808

Tell me SPOT peptide array binding signal intensity reported for SLSRRRFSLPSMPNV
189

Tell me SPOT peptide array binding signal intensity reported for LTRRFPFLFPFDTRM
12.5

Tell me SPOT peptide array binding signal intensity reported for QPQRTAPKPPISAPR
420

Tell me SPOT peptide array binding signal intensity reported for SSAAPPPPPRRATPE
293
